# test_system: T1, hPRLR.mFc (soluble dimeric human PRLR) (Homo sapiens, UniProt P16471)
# T1 construct: dimeric (hPRLR.mFc)
# T1 sequence (P16471 with tags, fused parts or gaps): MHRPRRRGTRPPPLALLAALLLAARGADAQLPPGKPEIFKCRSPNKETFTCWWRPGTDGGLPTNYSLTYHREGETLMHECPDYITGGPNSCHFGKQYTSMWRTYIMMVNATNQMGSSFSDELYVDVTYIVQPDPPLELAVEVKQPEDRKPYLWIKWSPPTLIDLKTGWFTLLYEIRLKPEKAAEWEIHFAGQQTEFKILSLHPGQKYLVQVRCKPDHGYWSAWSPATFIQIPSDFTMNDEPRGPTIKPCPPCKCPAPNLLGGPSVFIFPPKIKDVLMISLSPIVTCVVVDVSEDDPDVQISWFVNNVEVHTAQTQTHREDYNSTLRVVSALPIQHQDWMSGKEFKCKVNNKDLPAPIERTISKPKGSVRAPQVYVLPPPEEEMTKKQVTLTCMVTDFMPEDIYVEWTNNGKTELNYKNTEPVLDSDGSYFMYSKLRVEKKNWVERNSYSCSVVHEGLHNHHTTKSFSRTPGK
# test_summary: Surface plasmon resonance (Biacore T200), mAb-capture format
# Assay type: binding
# assay_context: 25° C., antibody-capture format, analyte hPRLR.mFc
assay_endpoint: Kd (nM)
Write it as a number; the unit nM goes unstated.

Recorded Kd of H1H6774P: anti-PRLR antibody, human IgG1 Fc; HCVR/LCVR SEQ ID NOs 34/42 (antibody, V domains shown, human IgG1 Fc) VH: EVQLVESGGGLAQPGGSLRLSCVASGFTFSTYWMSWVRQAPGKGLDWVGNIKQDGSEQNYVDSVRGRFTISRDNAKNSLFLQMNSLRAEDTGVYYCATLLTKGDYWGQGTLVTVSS VL: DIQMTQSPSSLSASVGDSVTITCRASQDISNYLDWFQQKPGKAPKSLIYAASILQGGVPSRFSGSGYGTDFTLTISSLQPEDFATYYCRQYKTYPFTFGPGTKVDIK , please.
0.112
